# Tested on: Rattus norvegicus
# Protocol Text: Antipsychotic activity in 8-OH-DPAT-stimulated rat assessed as lower lip retractions at 10 mg/kg, iv administered 45 mins before 8-OH-DPAT challenge measured after 15 to 45 mins (reference value: 2.9 retractions)
# Format: functional
Quantity Name: Activity

Worked set:
>>> reported_result("COc1cc(N)c(Cl)cc1C(=O)N[C@@H]1CC2CC[C@H](C1)N2CC1CCCO1 (single isomer, unassigned)")
2.4
>>> reported_result("COc1cc(N)c(Cl)cc1C(=O)N[C@H]1CC2CC[C@H](C1)N2Cc1ccco1 (single isomer, unassigned)")
2.6
>>> reported_result("O=C(N[C@@H]1CC2CC[C@H](C1)N2Cc1ccccc1)c1ccc2ccccc2c1 (single isomer, unassigned)")
2.6

--- query ---
The observed Activity for O=C(N[C@H]1CC2CC[C@H](C1)N2Cc1ccco1)c1ccc2ccccc2c1 (single isomer, unassigned) when tested with Rattus norvegicus stands at 2.7
